%Inh: recorded values
test system: STK33; settings: concentration: 1 μM, replicates: in singlicate; n = 1;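 note: KINOMEscan kinase panel screen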
Value expressed in %; do not type the unit.

Illustrative cases are given below, each with its answer.
O=C(NCCCN1CCOCC1)c1cccc(Nc2nccc(Nc3ccc(Oc4ccccc4)cc3)n2)c1 [GW663929] :: 10
O=c1cc(N2CCOCC2)nc2n(Cc3cccc(Cl)c3Cl)c(C3CC3)nn12 [GSK2358994] :: 0
Fc1ccc(-c2ncn(CCCN3CCOCC3)c2-c2cccnc2)cc1 [SB-211743] :: 0
COc1cc2c(cc1OCCN1CCN(C)CC1)ncc1c3ccc(C#N)cc3[nH]c21 :: 25
O=C(NCCNc1ccnc(Nc2ccc(F)cc2)n1)c1cc2ccccc2s1 [GSK1379874] :: 0
NS(=O)(=O)c1cccc(-c2ccc3nccc(-c4cccc(S(N)(=O)=O)c4)c3c2)c1 [GW867253] :: 0

Query: Consider the molecule shown here: COc1ccc(Nc2nccc(N3CCC(NC(=O)Nc4cccc(C(C)=O)c4)C3)n2)cc1 (stereo not drawn) [GSK1379731] What is its recorded %Inh?
Reply: 0

Query: Consider the molecule shown here: Cn1ccc2ncnc(Oc3ccc(NC(=O)Nc4ccncc4)c(Cl)c3)c21 What is its recorded %Inh?
Reply: 0

Query: Consider the molecule shown here: CSc1ccc(-c2cc3ncnc(SCC(=O)O)c3s2)cc1 What is its recorded %Inh?
Reply: 8

Query: Consider the molecule shown here: Cl.Oc1cccc(Nc2ccnc3cc(-c4ccncc4)ccc23)c1 [GW494601] What is its recorded %Inh?
Reply: 41

Query: Consider the molecule shown here: Cl.Nc1ncnc2occ(-c3ccc(NC(=O)Nc4cc(C(F)(F)F)ccc4F)cc3)c12 [SB-707548] What is its recorded %Inh?
Reply: 87

Query: Consider the molecule shown here: CC(C)(C)n1cnc2c(N)ncnc21 [SKF-97359] What is its recorded %Inh?
Reply: 0

Query: Consider the molecule shown here: CCc1ccnc(/C=C/c2n[nH]c3cc(Sc4ccccc4C(=O)NC)ccc23)c1 What is its recorded %Inh?
Reply: 4

Query: Consider the molecule shown here: CCc1nc(-c2cccc(C)c2)c(-c2ccnc(NCc3ccccc3)c2)s1 What is its recorded %Inh?
Reply: 0

----------
tested on: CSF1R; details: concentration: 1 μM, replicates: in singlicate; n = 1
%Inh: recorded values
Value expressed in %; do not type the unit.

O=C(NCCNc1ccnc(Nc2ccc(F)cc2)n1)c1cc2ccccc2s1 [GSK1379874] :: 0
Cl.Oc1cccc(Nc2ccnc3cc(-c4ccncc4)ccc23)c1 [GW494601] :: 91.9
O=C(c1ccc(-c2cc(-c3c[nH]nc3-c3ccccn3)ccn2)cc1)N1CCOCC1 [GW812171] :: 16

Query: Request - read-out %Inh | tested on CSF1R | molecule Cc1cn2c(=O)cc(N3CCOCC3)nc2n1Cc1cccc(Cl)c1Cl [GSK2334006]
Reply: 5

Query: Request - read-out %Inh | tested on CSF1R | molecule O=C(NOCC1CC1)c1ccc(F)c(F)c1Nc1ccc(I)cc1Cl
Reply: 0

Query: Request - read-out %Inh | tested on CSF1R | molecule Cc1cccc(-c2nc(-c3ccc(S(C)(=O)=O)cc3)sc2-c2ccncc2)c1
Reply: 9

Query: Request - read-out %Inh | tested on CSF1R | molecule CCCCCc1nc2c(N)ncnc2n1CCCCC [SKF-97255]
Reply: 17

Query: Request - read-out %Inh | tested on CSF1R | molecule Cn1cc(-c2ccc3c(c2)CCN3C(=O)Cc2ccccc2Cl)c2c(N)ncnc21 [GSK2608885]
Reply: 99.8

Query: Request - read-out %Inh | tested on CSF1R | molecule CCc1ccnc(/C=C/c2n[nH]c3cc(Sc4ccccc4C(=O)NC)ccc23)c1
Reply: 99.9
